# System: SK-OV-3 ovarian
# PROCEDURE TEXT: NCI tumour cell line growth inhibition, 48 h
Reported TGI is given for each of the following molecules.

MOLECULE | TGI
CC(=O)OC[C@]12CC[C@@H]([C@@H](C)C(N)=O)[C@@H]1[C@H]1CC[C@@H]3[C@@]4(C)CC[C@H](OC(C)=O)C(C)(C)[C@@H]4CC[C@@]3(C)[C@]1(C)CC2 | 64 µM
CN(C)CCCNc1nnc(NCCCN(C)C)c2c(=O)c3sccc3[nH]c12 | > 100 µM
CC1(C)CCc2cc3c(-c4ccccc4)cc(=O)oc3cc2O1 | > 100 µM
C#COc1cccc(Nc2ncnc3ncc(NC(=O)CCl)cc23)c1 | > 62.5 µM
CC(C)N=C(NC#N)NS(=O)(=O)c1cnccc1Nc1ccc(Cl)cc1 | > 100 µM
CC(C)(C)OC(=O)NC(Cc1cnc[nH]1)C(=O)N1CCCC1C(N)=O (stereo not given) | > 100 µM
O=C(CCCc1ccccn1)c1ccccc1 | > 100 µM
Cc1c[nH]c(C(=O)O)c1-c1ccc2c(-c3ccccc3)nc3ccccc3n12 | > 100 µM

Task: Query for SK-OV-3 ovarian: what TGI does the record show for COC(=O)[C@@]1(C)CC[C@]2(C)CC[C@]3(C)C4=CC=C5C(=CC(=O)C(O)=C5C)[C@]4(C)CC[C@@]3(C)[C@@H]2C1 ?
Output: 2.01 µM

Task: What do you get for COc1ccc(-c2nn(-c3cccc(NC(=O)Nc4cc(C(F)(F)F)cc(C(F)(F)F)c4)c3)cc2-c2ccncc2)cc1Cl ?
Output: 7.38 µM

Task: Now this one: CCCC(=O)OC[n+]1cccc(-c2c(COC(=O)NC(C)C)c(COC(=O)NC(C)C)c3n2CCC3)c1
Output: > 100 µM

Task: Now give it for O=C(O)C#CCO too.
Output: > 100 µM

Task: Also need C=C(CS(=O)(=O)c1ccccc1)[P+](c1ccccc1)(c1ccccc1)c1ccccc1 , thanks.
Output: 81.6 µM

Task: Then what about the molecule CCN(CC)CCCC(Nc1c2ccc(Cl)cc2nc2ccc(OC)cc12)c1ccc(F)cc1 (stereo not given) ?
Output: 15.9 µM

Task: Now the molecule COc1ccc(/C=C\c2cc(OC)c(OC)c(OC)c2)cc1OC(=O)c1cccc(Cn2cc(CCOC(=O)c3cccc(Cn4nnc5c4C(=O)c4ccccc4C5=O)c3)nn2)c1
Output: 46.7 µM

###

Recorded TGI for the following compounds
# Test system: MDA-MB-435
# PROCEDURE TEXT: NCI tumour cell line growth inhibition, 48 h
Kindly answer with a numeric value in µM, unit omitted.

Here is how some compounds turned out for TGI.
SMI | TARGET UNDER TEST | TGI [µM]
O=C(OCC12CC3CC(CC(C3)C1)C2)c1ccc(NCc2cc(O)ccc2O)cc1 | MDA-MB-435 | 7.06
CC(=O)O[C@H]1CC[C@@]2(C)C(=CC[C@@H]3[C@@H]2CC[C@]2(C)C(=N/O)/C(=C/c4ccc([N+](=O)[O-])cc4)C[C@@H]32)C1 | MDA-MB-435 | 29.3
CCCN(CCC)CCCNC(=O)c1cc2c(-c3ccc(OC)c(OC)c3)nn(C)c2s1 | MDA-MB-435 | 31.8

# next compound below
Task: Which TGI is reported for this compound? COc1ccc(-c2cc(/C=C3\C(=O)Nc4ccc(OC)cc43)[nH]n2)cc1
Output: 26.1

###

# Test system: UACC-62 melanoma
# PROCEDURE TEXT: NCI tumour cell line growth inhibition, 48 h; in the data active means GI50 below about 0.43 µM; inactive means the rest
Hi there, use one of these labels in your reply, thanks! active, inactive

Below, 6 molecules whose answers are already recorded.
MOLECULE | ASSIGNED CLASS
COc1cc([C@@H]2c3cc4c(cc3[C@@H](O[C@@H]3O[C@@H]5CO[C@@H](c6cccs6)O[C@H]5[C@H](O)[C@H]3O)[C@H]3COC(=O)[C@H]23)OCO4)cc(OC)c1O | active
CCOC(=O)c1cc(C(=O)c2cc(OC)cc(OC)c2)n2ncc3ccccc3c12 | inactive
C=C1CCC2C3(C)COC(c4ccc(SC)cc4)OC3CCC2(C)C1C/C=C1/C(=O)OCC1O (centres undefined) | inactive
O=C1C(Cl)=C(Nc2cccc(O)c2)C(=O)N1c1ccc(Cl)c(Cl)c1 | inactive
CCCN(CCC)CCCNC(=O)c1cc2c(-c3ccc(OC)c(OC)c3)nn(C)c2s1 | inactive
CC(=O)Nc1cc2c(cc1O)CC[C@@H]1[C@@H]2CC[C@]2(C)[C@@H](O)CC[C@@H]12 | inactive

Task: Status in this test for Oc1cc(O)c2c(=S)cc(-c3ccc(Cl)cc3)oc2c1 ?
Output: inactive

Task: Would you mind doing COC(=O)Nc1nc2cc3c(cc2s1)OCCO3 as well?
Output: inactive

Task: One more molecule: COc1ccc(Cc2cnc(NC(=O)c3sc4ccccc4c3Cl)s2)cc1
Output: inactive

###

# System: EKVX NSCLC
# PROCEDURE TEXT: NCI tumour cell line growth inhibition, 48 h
# TGI values compiled below
Report the figure in µM without appending any unit label.

Consider the following illustrative entries.
SMI | TARGET UNDER TEST | TGI, µM
CC(C)[Si](OC1=C(C(=O)N(C)c2ccccc2Cl)CCC1)(C(C)C)C(C)C | EKVX NSCLC | 31.1
c1ccc2sc(C3(N4CCCCC4)CCCCCC3)cc2c1 | EKVX NSCLC | 47.2
c1ccc2c3c([nH]c2c1)C1c2[nH]c4ccccc4c2CCN1CC3 | EKVX NSCLC | 20.2
N#CN1CCC[C@H]1C(=O)N1CCc2c(-c3[nH]nc4ncccc34)cccc21 | EKVX NSCLC | 25

Pending molecule:
Task: TGI for CN1CCN(Cc2ccc(NC(=O)c3ccc(C#N)c(C#Cc4cnc(N)c5ncccc45)c3)cc2C(F)(F)F)CC1 ?
Output: 89.7

###

# Tested on: OVCAR-3 ovarian
# PROCEDURE TEXT: NCI tumour cell line growth inhibition, 48 h
ENDPOINT: TGI

Previously resolved entries follow.
MOLECULE | TGI
CCCCN(CCCC)CCCCNc1c(C)cnc2cc(Cl)ccc12 | > 100 µM
NCC(NC(=O)OCc1ccccc1)C(=O)O (stereo not drawn) | > 50 µM

Task: Any idea what its TGI is? The molecule is Cc1ccc(-n2c(Cn3nnc(-c4cccnc4)n3)nn(C3OC(COC(=O)c4ccccc4)C(OC(=O)c4ccccc4)C3OC(=O)c3ccccc3)c2=S)cc1 (stereo not drawn)
Output: > 100 µM

###

# Test system: KM12 colon
# PROCEDURE TEXT: NCI tumour cell line growth inhibition, 48 h
Documented GI50 across a set of compounds

COMPOUND | EXPERIMENTAL VALUE
CCC[CH2][Sn]([CH2]CCC)([O]C(=O)c1nccnc1N)[O]C(=O)c1nccnc1N | 1420 nM
COC(=O)[C@H](CC(C)C)NC(=O)NC(=O)NC(=O)CI | 15800 nM

Task: What value of GI50 has been reported for the following compound? CC(=O)OCC1OC(OC2=C(CC=C(Cl)Cl)C(=O)c3ccccc3C2=O)C(OC(C)=O)C(OC(C)=O)C1OC(C)=O (centres undefined)
Output: 3260 nM

Task: Now consider COc1cc([C@@H]2c3cc4c(cc3[C@@H](O[C@@H]3O[C@@H]5CO[C@@H](c6cccs6)O[C@H]5[C@H](O)[C@H]3O)[C@H]3COC(=O)[C@H]23)OCO4)cc(OC)c1O .
Output: 634 nM

###

# System: A549 NSCLC
# PROCEDURE TEXT: NCI tumour cell line growth inhibition, 48 h; in the data active means GI50 below about 0.43 µM; inactive means the rest
Respond using exactly one of the listed classes: active, inactive

MOLECULE | ASSIGNED CLASS
CC1OC(OC2CC(O)C3(CO)C4C(O)CC5(C)C(C6=CC(=O)OC6)CCC5(O)C4CCC3(O)C2)C(O)C(O)C1O (stereo not drawn) | active

Task: Outcome? COc1cc([C@@H]2c3cc4c(cc3[C@@H](O[C@@H]3O[C@@H]5CO[C@@H](c6cccs6)O[C@H]5[C@H](O)[C@H]3O)[C@H]3COC(=O)[C@H]23)OCO4)cc(OC)c1O
Output: active

Task: Also need CC1=C([Se]CC(OC(=O)[C@@H](CO)NC(=O)OC(C)(C)C)C(=O)NC(C)(C)C)C(=O)c2ccccc2C1=O (stereo partly drawn) , thanks.
Output: inactive

Task: Try the molecule CN(C)CCCNc1nccc(-c2c(-c3ccc(F)cc3)nn3cc(C(F)(F)F)ccc23)n1
Output: inactive

Task: Cool, now CN(C)CCN=Cc1c2ccccc2c(=O)n2c1oc1ccccc12
Output: inactive

Task: // repeat for C=C1CCC2C3(C)COC(c4ccc(SC)cc4)OC3CCC2(C)C1C/C=C1/C(=O)OCC1O (stereo not drawn) and report
Output: inactive

Task: Next up: N#CN1CCC[C@H]1C(=O)N1CCc2c(-c3[nH]nc4ncccc34)cccc21
Output: active

Task: Next entry: C/C(=C\CCc1ccoc1)CC/C=C(\C)CCCN1CCC(CO)CC1
Output: inactive

Cited source: PubChem BioAssay (NCI)
